experiment: 4-week repeat-dose toxicity/TK study in rats; type: in vivo, Sprague Dawley rats; details: male, Sprague Dawley (Crl: CD (SD)), rat, plasma, po, 400 mg/kg/day, day 1, PO 400 mg/kg/day, Male
ENDPOINT NAME: Tmax (h)
One number for each entry, in h.

Tmax reported for this compound C[C@]12CC[C@@H]3c4ccc(B(O)O)cc4C[C@@H](CCCCCCCCC[S+]([O-])CCCC(F)(F)C(F)(F)F)[C@H]3[C@@H]1CC[C@@H]2O (stereo partly shown) [ZB716, fulvestrant-3-boronic acid] : 1

----------
test: Single-dose PK and bioavailability of ZB716 in rats; format: in vivo; settings: male, Sprague Dawley, rat, plasma; single dose, IV 2 mg/kg/day, M
ENDPOINT NAME: Cmax
Remember to put the unit after the number in your answer.

Cmax reported for this compound C[C@]12CC[C@@H]3c4ccc(B(O)O)cc4C[C@@H](CCCCCCCCC[S+]([O-])CCCC(F)(F)C(F)(F)F)[C@H]3[C@@H]1CC[C@@H]2O (stereo partly shown) : 5370 ng/mL

Data provenance is paper PMC8400955.
